Where do these numbers come from? They come from the supplement of paper PMC6555819.

- System: THRa homodimer (NR concentration 90 nM)
- Assay Details: PBM binding z-score (relative to random genomic background probes); higher = stronger binding; sequences stand for … in GC…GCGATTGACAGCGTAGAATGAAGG
Readout Type: PBM binding z-score
Respond numerically, and do not add a unit to the figure.

Study these solved cases before continuing.
[
  {
    "Record Sequence": "CGTCTAAGGTCAGAGAGGTCAGTGAATGCCGAGT",
    "Quantitative Readout": 3.81
  },
  {
    "Record Sequence": "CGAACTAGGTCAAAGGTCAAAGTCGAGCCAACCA",
    "Quantitative Readout": 1.53
  },
  {
    "Record Sequence": "TAGCCTAGGTCATTGGGCCAGTATCGTACGCATC",
    "Quantitative Readout": 1.01
  },
  {
    "Record Sequence": "TCAAGCAGGCCAGAGGGTCACTCAAGAGGTACGG",
    "Quantitative Readout": -0.21
  }
]

Q: Need PBM binding z-score, item GGAACGAGGGCATTCTAGTTGATAGCATGGCGAT
Ans: -0.282

Q: Need PBM binding z-score, item ATACCAAGGTGAGCGTGAGGTCGTTGATACTAAC
Ans: 2.51

Q: Need PBM binding z-score, item CGTCCAAGGTTATAGGAGGTCAGTGAAGACAGAT
Ans: 1.69

Q: Need PBM binding z-score, item TAGCCTAGGTCCTGCGGGCCAGTATAGTGTCGGC
Ans: -0.966

Q: Need PBM binding z-score, item TCTTGTAGATCAACAGGAGGTAAAGAAAGATCGA
Ans: -0.482

Q: Need PBM binding z-score, item TCGAGTAGGTTAGGGGCTTTCAGAATGGCGTCGA
Ans: 0.122

Q: Need PBM binding z-score, item TCTTGCAGATCAAAGGTTAAGAAAGCCGAAGCCT
Ans: -0.786

Q: Need PBM binding z-score, item TCTGCTAGGTAAACGATGGTCAGCTAATCTGCTA
Ans: -1.01

====

Some sequences, each annotated with its measured PBM binding z-score.
- System: RARa homodimer (NR concentration 270 nM)
- Assay Details: PBM binding z-score (relative to random genomic background probes); higher = stronger binding; sequences stand for … in GC…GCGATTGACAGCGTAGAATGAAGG

[
  {
    "Record Sequence": "CTTCGGAGGACAACAGGAGGTCAGAGCTGCCAGA",
    "PBM binding z-score": 0.557
  },
  {
    "Record Sequence": "CCTACTGGGCCAACAGGTCATTGATATCAACGTT",
    "PBM binding z-score": -0.373
  },
  {
    "Record Sequence": "GATACAAGGTCAAGGCCAGAGTACGCGTATTGAT",
    "PBM binding z-score": 0.975
  },
  {
    "Record Sequence": "CCTCGGAGGACGACAGGAGGTCAGAGCTGCCAGA",
    "PBM binding z-score": 0.247
  },
  {
    "Record Sequence": "CCTACCGGGCCATCAGGTCATTGATATCAACGTT",
    "PBM binding z-score": 0.127
  },
  {
    "Record Sequence": "CTCGAAAGGTCGTGCTCAGGTGAGTATTCCAAAC",
    "PBM binding z-score": 0.262
  },
  {
    "Record Sequence": "ATCGACAGGTCGAGGTGAGTATAGAGAAAGGGAA",
    "PBM binding z-score": 0.423
  },
  {
    "Record Sequence": "TCTGCTAGGTCAACGATGATCAGCTAATCTGCTA",
    "PBM binding z-score": -0.998
  }
]

Q: Need PBM binding z-score, item GCATATAGGTAATACAAGGTGAAGGTCCGATTGT
Ans: 0.491

Q: Need PBM binding z-score, item CCTGCTAGGTCAACGGTCAGCTAAAGCAGCTCGC
Ans: 0.262

Q: Need PBM binding z-score, item GCTTACGGGTCAAAGATTATAGCATGAATAGAAT
Ans: 0.373
